Data origin, for the record: patent US5395610A

Synergism with Actinomycin D, normalized absorbance, Drug Resistant KB V-1, +ACT D values by entry
# Test system: human KB epidermoid carcinoma cells, drug resistant KB V-1
# method_notes: In vitro cytotoxicity / potentiation of Actinomycin D in human KB epidermoid carcinoma cells, drug resistant KB V-1 (MTT)
# Type: cell-based
# condition_notes: 1 μM potentiating agent + Act D 20 nM; 96 h; fraction of Act D alone
property_label: Synergism with Actinomycin D, normalized absorbance, Drug Resistant KB V-1, +ACT D

> print(dat)
                                   compound  observed.result
1  Brc1ccc2c(c1)/C(=C/CCN1CCCC1)c1ccccc1OC2             1.00
2  CN(C)CC/C=C1/c2ccccc2COc2cc(Br)ccc21 [(E)]             0.74
3  Fc1ccc2c(c1)/C(=C/CCN1CCCC1)c1ccccc1CO2 [(S)]             0.84
4        CN(C)CCC=C1c2ccc(Br)cc2COc2ccccc21             1.00
5  Brc1ccc2c(c1)/C(=C/CCN1CCCC1)c1cc(Br)ccc1OC2             0.78
6    CCN(CC)CC/C=C1/c2ccccc2COc2ccc(Br)cc21             0.95
7      CN(C)CC/C=C1/c2cc(Br)ccc2COc2ccccc21             0.97
